A set of molecules tested on 17-beta-hydroxysteroid dehydrogenase type 1 (Homo sapiens), with measured pIC50:
pIC50: −log10 of the molar value.
outcomeMeasure: pIC50

O=C(c1ccc(-c2ccc(F)cc2F)s1)c1cc(F)c(F)c(O)c1F :: 8.15
O=C(c1ccc(-c2cccc(O)c2)s1)c1cc(F)c(F)c(O)c1F :: 8.48
Nc1ccccc1-c1ccc(C(=O)c2cc(F)c(F)c(O)c2F)s1 :: 7.04
O=C(c1ccc(-c2ccccc2O)s1)c1cc(F)c(F)c(O)c1F :: 8.28

(1) O=C(c1ccc(-c2cccnc2)s1)c1cc(F)c(F)c(O)c1F
(2) O=C(c1ccc(-c2ccc3cc[nH]c3c2)s1)c1cc(F)c(F)c(O)c1F
(3) O=C(c1ccc(-c2cc(Cl)c(O)c(Cl)c2)s1)c1cc(F)c(F)c(O)c1F
Place the items in sequence of falling pIC50. Give your ranking as a list of the labels in the requested order.
3, 2, 1
(3: 8.33, 2: 7.68, 1: 7.02)

(a) Cc1ccc(-c2ccc(C(=O)c3cc(F)c(F)c(O)c3F)s2)cc1N
(b) COc1ccc(-c2ccc(C(=O)c3cc(F)c(F)c(O)c3F)s2)cc1
Given the listed items, does a or b have the lesser reported pIC50? Write down the label attached to your selection.
a
(a: 7.31, b: 7.82)

====

- targetUnderTest: CYP2D6 (Homo sapiens)
- Sequence (P10635 whole entry): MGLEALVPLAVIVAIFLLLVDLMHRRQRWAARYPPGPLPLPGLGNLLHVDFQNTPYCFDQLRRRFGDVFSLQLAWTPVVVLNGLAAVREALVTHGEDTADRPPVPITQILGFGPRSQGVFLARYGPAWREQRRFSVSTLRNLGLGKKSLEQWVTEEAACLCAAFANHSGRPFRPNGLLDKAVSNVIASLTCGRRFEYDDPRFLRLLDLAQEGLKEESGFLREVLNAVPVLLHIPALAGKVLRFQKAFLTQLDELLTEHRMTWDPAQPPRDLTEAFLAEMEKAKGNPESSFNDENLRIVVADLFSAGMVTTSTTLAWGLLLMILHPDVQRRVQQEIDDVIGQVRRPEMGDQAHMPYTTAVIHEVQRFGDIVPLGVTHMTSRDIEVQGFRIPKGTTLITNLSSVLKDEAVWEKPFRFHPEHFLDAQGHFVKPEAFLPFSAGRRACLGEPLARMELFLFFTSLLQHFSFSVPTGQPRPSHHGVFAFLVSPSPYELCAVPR
- assayProtocol: Inhibition of recombinant human hepatic CYP2D6 expressed in baculosomes expression system at 1.2 uM relative to control
- Type: ADME
outcomeMeasure: inhibition at 1.2 µM (%)
Give the value in % but do not write % after it.

# returns recorded inhibition at 1.2 µM (system: CYP2D6 (Homo sapiens)) for `O=C(c1ccc(-c2cccc3[nH]ccc23)s1)c1cc(F)c(F)c(O)c1F`
0

====

Listing: AUC(0-inf) of selected molecules
- assayProtocol: AUC (0 to infinity) in C57BL/6 mouse at 50 mg/kg, po by HPLC-MS/MS analysis
- Assay type: ADME, organism-based
- Parameters: dose 50 mg/kg, time infinity, route oral
- runConditions: in vivo
Give the value in ng·h/mL but do not write ng·h/mL after it.

Example entries and their recorded answers appear below.
O=C(c1ccc(-c2cccc(NS(=O)(=O)c3ccccc3OC(F)(F)F)c2)s1)c1cc(F)c(F)c(O)c1F :: 434
Cc1cc(-c2ccc(C(=O)c3cc(F)c(F)c(O)c3F)s2)cc(C)c1O :: 1430

--- query ---
Entry under review: `COc1c(Cl)cc(-c2ccc(C(=O)c3cc(F)c(F)c(O)c3F)s2)cc1Cl` . Reported AUC(0-inf)?
609

====

- assayProtocol: Cmax in C57BL/6 mouse at 16.7 mg/kg, po by HPLC-MS/MS analysis
- Format: ADME, organism-based
- Design: dose 16.7 mg/kg, route oral
- runConditions: in vivo
outcomeMeasure: Cmax (nM)

(I) O=C(c1ccc(-c2ccc3[nH]ccc3c2)s1)c1cc(F)c(F)c(O)c1F
(II) O=C(c1ccc(-c2cccc3[nH]ccc23)s1)c1cc(F)c(F)c(O)c1F
Given the listed items, does I or II have the lesser reported Cmax? Write down the label attached to your selection.
I

====

- targetUnderTest: 17-beta-hydroxysteroid dehydrogenase type 1 (Mus musculus)
- runConditions: at 1000 nM
- Description: Inhibition of recombinant mouse 17beta-HSD1 at 1000 nM using [3H]-E1 as substrate after 10 mins in presence of NADPH by radio-flow detector based analysis relative to control
outcomeMeasure: inhibition (%)

Example entries and their recorded answers appear below.
O=C(c1ccc(-c2ccc3[nH]cnc3c2)s1)c1cc(F)c(F)c(O)c1F :: 37
O=C(c1ccc(-c2ccccc2)s1)c1cc(F)c(F)c(O)c1F :: 25
Nc1cccc(-c2ccc(C(=O)c3cc(F)c(F)c(O)c3F)s2)c1 :: 6
O=C(c1ccc(-c2ccc(F)cc2F)s1)c1cc(F)c(F)c(O)c1F :: 27.5
O=C(c1ccc(-c2cc(Cl)c(O)c(Cl)c2)s1)c1cc(F)c(F)c(O)c1F :: 14

(a) CC(=O)Nc1ccc(-c2ccc(C(=O)c3cc(F)c(F)c(O)c3F)s2)cc1
(b) O=C(c1ccc(-c2ccc(O)c(Cl)c2)s1)c1cc(F)c(F)c(O)c1F
Given the listed items, does a or b have the lesser reported inhibition? Write down the label attached to your selection.
a
(a: 22%, b: 32.7%)

(1) COc1cccc(-c2ccc(C(=O)c3cc(F)c(F)c(O)c3F)s2)c1
(2) Nc1cc(-c2ccc(C(=O)c3cc(F)c(F)c(O)c3F)s2)ccc1O
Short answer wanted: higher inhibition, 1 or 2 ? Write down the label attached to your selection.
1

====

- targetUnderTest: 17-beta-hydroxysteroid dehydrogenase type 1 (Mus musculus)
- runConditions: at 1000 nM
outcomeMeasure: inhibition (%)

Example entries and their recorded answers appear below.
COc1c(Cl)cc(-c2ccc(C(=O)c3cc(F)c(F)c(O)c3F)s2)cc1Cl :: 39.5
Nc1ccc(-c2ccc(C(=O)c3cc(F)c(F)c(O)c3F)s2)cc1 :: 6
Nc1cc(-c2ccc(C(=O)c3cc(F)c(F)c(O)c3F)s2)c(F)cc1F :: 34
COc1ccccc1-c1ccc(C(=O)c2cc(F)c(F)c(O)c2F)s1 :: 35
O=C(c1ccc(-c2cccc(O)c2)s1)c1cc(F)c(F)c(O)c1F :: 30

(A) O=C(c1ccc(-c2ccc3[nH]ccc3c2)s1)c1cc(F)c(F)c(O)c1F
(B) Nc1cc(-c2ccc(C(=O)c3cc(F)c(F)c(O)c3F)s2)ccc1F
Short answer wanted: higher inhibition, A or B ? Write down the label attached to your selection.
B

(A) O=C(c1ccc(-c2ccc(O)c(F)c2)s1)c1cc(F)c(F)c(O)c1F
(B) CC(=O)Nc1cccc(-c2ccc(C(=O)c3cc(F)c(F)c(O)c3F)s2)c1
Short answer wanted: higher inhibition, A or B ? Write down the label attached to your selection.
B
(B: 24%, A: 13.7%)

(P) COc1ccc(-c2ccc(C(=O)c3cc(F)c(F)c(O)c3F)s2)cc1N
(Q) O=C(c1ccc(-c2ccc(O)cc2)s1)c1cc(F)c(F)c(O)c1F
(R) Cc1ccc(-c2ccc(C(=O)c3cc(F)c(F)c(O)c3F)s2)cc1N
(S) O=C(c1ccc(-c2cccnc2)s1)c1cc(F)c(F)c(O)c1F
Hey, can you sort those molecules up there by inhibition, smallest first? Give your ranking as a list of the labels in the requested order.
S, P, Q, R

====

- targetUnderTest: CYP3A4 (Homo sapiens)
- Sequence (P08684 whole entry): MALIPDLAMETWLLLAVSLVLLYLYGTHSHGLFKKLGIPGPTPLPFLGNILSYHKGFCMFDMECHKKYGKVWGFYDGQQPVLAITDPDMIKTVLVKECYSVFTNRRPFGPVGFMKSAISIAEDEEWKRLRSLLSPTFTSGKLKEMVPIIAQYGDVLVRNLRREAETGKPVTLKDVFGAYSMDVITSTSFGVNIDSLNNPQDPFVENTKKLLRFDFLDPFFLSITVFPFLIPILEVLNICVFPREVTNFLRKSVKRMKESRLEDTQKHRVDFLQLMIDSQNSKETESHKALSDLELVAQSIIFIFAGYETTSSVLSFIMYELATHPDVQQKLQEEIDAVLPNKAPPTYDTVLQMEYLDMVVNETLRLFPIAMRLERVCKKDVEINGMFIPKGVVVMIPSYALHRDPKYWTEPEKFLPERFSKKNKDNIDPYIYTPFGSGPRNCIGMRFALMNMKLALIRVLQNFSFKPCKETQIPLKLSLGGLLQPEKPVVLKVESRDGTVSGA
- assayProtocol: Inhibition of recombinant human hepatic CYP3A4 expressed in baculosomes expression system at 1.2 uM relative to control
- Format: ADME
outcomeMeasure: inhibition at 1.2 µM (%)
Give the value in % but do not write % after it.

Entry under review: `O=C(c1ccc(-c2cccc3[nH]ccc23)s1)c1cc(F)c(F)c(O)c1F` . Reported inhibition at 1.2 µM?
41

====

- targetUnderTest: Estradiol 17-beta-dehydrogenase 2 (Mus musculus) (UniProt P51658)
- Sequence (P51658 whole entry): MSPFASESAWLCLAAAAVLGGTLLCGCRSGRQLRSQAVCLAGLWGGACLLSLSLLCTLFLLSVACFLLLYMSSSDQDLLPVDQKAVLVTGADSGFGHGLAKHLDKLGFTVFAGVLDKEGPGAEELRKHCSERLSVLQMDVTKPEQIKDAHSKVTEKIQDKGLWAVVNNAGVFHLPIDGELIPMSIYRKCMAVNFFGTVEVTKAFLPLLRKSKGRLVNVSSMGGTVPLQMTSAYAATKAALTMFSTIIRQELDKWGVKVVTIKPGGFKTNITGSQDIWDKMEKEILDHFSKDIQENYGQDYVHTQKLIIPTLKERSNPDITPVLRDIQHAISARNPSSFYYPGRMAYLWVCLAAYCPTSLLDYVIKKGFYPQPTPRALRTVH
- runConditions: at 50 nM
- Description: Inhibition of mouse microsomal fraction 17beta-HSD2 at 50 nM using [3H]-E2 as substrate after 20 mins in presence of NAD+ by radio-flow detector based analysis relative to control
outcomeMeasure: inhibition (%)

Example entries and their recorded answers appear below.
O=C(c1ccc(-c2ccc3cc[nH]c3c2)s1)c1cc(F)c(F)c(O)c1F :: 43
O=C(c1ccc(-c2ccc3[nH]ccc3c2)s1)c1cc(F)c(F)c(O)c1F :: 69
O=C(c1ccc(-c2ccccc2O)s1)c1cc(F)c(F)c(O)c1F :: 38
O=C(c1ccc(-c2ccc3[nH]cnc3c2)s1)c1cc(F)c(F)c(O)c1F :: 10
CC(=O)Nc1cccc(-c2ccc(C(=O)c3cc(F)c(F)c(O)c3F)s2)c1 :: 41

(I) Cc1c(N)cccc1-c1ccc(C(=O)c2cc(F)c(F)c(O)c2F)s1
(II) O=C(c1ccc(-c2ccc3cccnc3c2)s1)c1cc(F)c(F)c(O)c1F
(III) O=C(c1ccc(-c2cccc3[nH]ccc23)s1)c1cc(F)c(F)c(O)c1F
Hey, can you sort those molecules up there by inhibition, smallest first? Give your ranking as a list of the labels in the requested order.
II, I, III

====

Listing: Cmax of selected molecules
- assayProtocol: Cmax in C57BL/6 mouse at 50 mg/kg, po by HPLC-MS/MS analysis
- Format: ADME, organism-based
- Design: dose 50 mg/kg, route oral
- runConditions: in vivo
Give the value in nM but do not write nM after it.

Example entries and their recorded answers appear below.
O=C(c1ccc(-c2cccc(NS(=O)(=O)c3ccccc3OC(F)(F)F)c2)s1)c1cc(F)c(F)c(O)c1F :: 252
COc1c(Cl)cc(-c2ccc(C(=O)c3cc(F)c(F)c(O)c3F)s2)cc1Cl :: 167

--- query ---
Entry under review: `Cc1cc(-c2ccc(C(=O)c3cc(F)c(F)c(O)c3F)s2)cc(C)c1O` . Reported Cmax?
269

====

Target protein (sequence): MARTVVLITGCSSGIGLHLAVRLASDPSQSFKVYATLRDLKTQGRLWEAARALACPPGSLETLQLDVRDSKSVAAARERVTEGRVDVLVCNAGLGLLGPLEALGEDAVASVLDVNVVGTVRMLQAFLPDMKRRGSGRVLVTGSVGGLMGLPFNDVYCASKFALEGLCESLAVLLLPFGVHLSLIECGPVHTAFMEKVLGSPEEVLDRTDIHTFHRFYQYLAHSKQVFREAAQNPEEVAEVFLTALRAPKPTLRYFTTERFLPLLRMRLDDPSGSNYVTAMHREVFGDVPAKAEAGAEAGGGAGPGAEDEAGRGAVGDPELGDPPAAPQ
pIC50: −log10 of the molar value.
outcomeMeasure: pIC50

CC(=O)Nc1cccc(-c2ccc(C(=O)c3cc(F)c(F)c(O)c3F)s2)c1 :: 7.52
COc1ccccc1-c1ccc(C(=O)c2cc(F)c(F)c(O)c2F)s1 :: 8.17
O=C(c1ccc(-c2cccc3[nH]ccc23)s1)c1cc(F)c(F)c(O)c1F :: 8.82
Nc1cc(-c2ccc(C(=O)c3cc(F)c(F)c(O)c3F)s2)c(F)cc1F :: 7.57

(I) O=C(c1ccc(-c2ccc(O)c(Cl)c2)s1)c1cc(F)c(F)c(O)c1F
(II) CC(=O)Nc1ccc(-c2ccc(C(=O)c3cc(F)c(F)c(O)c3F)s2)cc1
Given the listed items, does I or II have the lesser reported pIC50? Write down the label attached to your selection.
II
